molecular target: UniProt:Q7ZJM1; assay: Inhibition of recombinant HIV-1 integrase 3'-processing activity using 32P 5' end-labeled linear 21'mer as substrate preincubated for 30 mins prior to substrate challenge by phosphorimaging analysis
pIC50: −log10 of the molar value.
# key: entry, value: pIC50

Here's what some known entries look like.
Please indicate recorded pIC50 of O=C1C[C@@H](c2ccc(O)cc2)Oc2cc(OCc3ccc(F)cc3)cc(O)c21 measured with UniProt:Q7ZJM1.
< 4.00

Give UniProt:Q7ZJM1 pIC50 for the following molecule: CC(C)(C)Oc1cc(O)c2c(c1)O[C@H](c1ccc(O)cc1)CC2=O
< 4.00

Find the measured pIC50 of CC(C)(C)Oc1cc(O)c2c(=O)cc(-c3ccccc3)oc2c1 with UniProt:Q7ZJM1 as test system.
< 4.00

# return pIC50 of O=c1c(O)c(-c2ccc(O)c(OCc3ccc(F)cc3)c2)oc2cc(O)cc(O)c12 (system: UniProt:Q7ZJM1)
< 4.70

Output reported pIC50 of the molecule O=c1cc(-c2ccc(O)c(O)c2)oc2cc(N3CCOCC3)cc(O)c12 on UniProt:Q7ZJM1.
< 4.70

Give pIC50; test system UniProt:Q7ZJM1; molecule O=c1c(-c2ccc(O)cc2)coc2cc(N3CCOCC3)cc(O)c12
< 4.70

Given O=c1c(O)c(-c2ccc(O)c(O)c2)oc2cc(N3CCOCC3)cc(O)c12 , report its pIC50 on UniProt:Q7ZJM1.
< 4.70

Enter measured pIC50, system UniProt:Q7ZJM1, for the molecule shown: O=c1cc(-c2ccccc2)oc2cc(OCc3ccc(F)cc3)c(O)c(O)c12
< 4.70

Next:
GET pIC50 | system: UniProt:Q7ZJM1 | item: O=c1c(O)c(-c2ccc(O)c(O)c2)oc2cc(O)cc(OCc3ccc(F)cc3)c12
< 4.70

Recall the reported pIC50 of O=c1c(O)c(-c2ccc(O)c(O)c2)oc2cc(O)cc(O)c12 when tested on UniProt:Q7ZJM1.
< 4.70

----------
molecular target: Human immunodeficiency virus type 1 integrase (Human immunodeficiency virus 1); assay: Inhibition of His6-tagged HIV-1 integrase assessed as decrease in integrase-Flag-LEDGF/p75 interaction preincubated with enzyme for 30 mins followed by addition of Flag-LEDGF/p75 for 1 hr by AlphaScreen assay
measured-endpoint: IC50 (µM)
Quick note: give the figure in µM, leave out the unit.

These solved cases illustrate the format of a correct answer.
Item O=c1c(-c2ccc(O)cc2)coc2cc(O)cc(O)c12 : provide IC50
1.1

Determine from records and report IC50 for O=c1c(O)c(-c2ccc(O)c(O)c2)oc2cc(N3CCOCC3)cc(O)c12
0.97

Others:
Output measured IC50 for this item: O=c1c(-c2ccc(O)cc2)coc2cc(N3CCOCC3)cc(O)c12
1.7

----------
test: Therapeutic index, ratio of CC50 for human C8166 cells to EC50 for HIV-1 3B infected in human C8166 cells; assay type: cell-based; details: HIV-1 3B infected C8166 cells, read-out: Ratio CC50/EC50
measured-endpoint: selectivity ratio
The response must contain the number and no unit.

These recorded examples may help you get a feel for the data.
Specify measured selectivity ratio for O=c1cc(-c2ccc(O)cc2)oc2cc(N3CCOCC3)cc(O)c12 .
1.5

Respond only with selectivity ratio recorded for O=c1cc(-c2ccccc2)oc2cc(OCc3ccc(F)cc3)c(O)c(O)c12
2

Determine its reported selectivity ratio: O=c1c(OCc2ccc(F)cc2)c(-c2ccc(O)c(O)c2)oc2cc(O)cc(O)c12
12

Check the records and state selectivity ratio for CC(C)(C)Oc1cc(O)c2c(c1)O[C@H](c1ccc(O)cc1)CC2=O
8

# return recorded selectivity ratio for input O=c1cc(-c2ccc(O)cc2)oc2cc(OCc3ccc(F)cc3)cc(O)c12
1.6

More entries:
Respond only with selectivity ratio recorded for CC(C)(C)Oc1cc2oc(-c3ccccc3)cc(=O)c2c(O)c1O
5

Give the reported selectivity ratio for this molecule. O=C1C[C@@H](c2ccc(O)cc2)Oc2cc(OCc3ccc(F)cc3)cc(O)c21
6

----------
assay: Cytotoxicity against human C8166 cells assessed as inhibition of cell proliferation after 72 hrs by MTT assay; format: cell-based
Measured CC50 at 72 h of individual entries
Use µg/mL as the unit, but write only the number.

Examples with answers:
Please report CC50 at 72 h for the following molecule: O=c1c(OCc2ccc(F)cc2)c(-c2ccc(O)c(O)c2)oc2cc(O)cc(O)c12
22.5

Provide measured CC50 at 72 h value, entry: O=c1c(O)c(-c2ccc(O)c(O)c2)oc2cc(O)cc(OCc3ccc(F)cc3)c12
24

Give CC50 at 72 h for O=c1cc(-c2ccccc2)oc2cc(O)cc(O)c12
110

Further cases:
Indicate the recorded CC50 at 72 h value for this molecule: O=c1c(O)c(-c2ccc(O)c(O)c2)oc2cc(OCc3ccc(F)cc3)cc(O)c12
5.68

Read the entry O=c1c(-c2ccc(O)cc2)coc2cc(O)cc(O)c12 and write its reported CC50 at 72 h.
36.2

Tell me CC50 at 72 h reported for O=c1c(O)c(-c2ccc(O)c(OCc3ccc(F)cc3)c2)oc2cc(O)cc(O)c12
23.8

Query CC50 at 72 h for O=c1cc(-c2ccc(O)cc2)oc2cc(OCc3ccc(F)cc3)cc(O)c12
16.8

----------
experiment: Cytotoxicity against human C8166 cells assessed as inhibition of cell proliferation after 72 hrs by MTT assay; type: cell-based
Our labelling divides records by CC50 at 72 h into ranges: low (below 20 µg/mL), intermediate (20 µg/mL to below 50 µg/mL), high (50 µg/mL or more)

For orientation, consider the following solved cases.
Textbook exercise: identify the category of the molecule given here, O=c1cc(-c2ccc(O)c(O)c2)oc2cc(O)cc(O)c12 , according to its measured value.
low

Band for the recorded CC50 at 72 h of CC(C)(C)Oc1cc2oc(-c3ccccc3)cc(=O)c2c(O)c1O ?
intermediate

Class for O=c1c(O)c(-c2ccc(OCc3ccc(F)cc3)c(O)c2)oc2cc(O)cc(O)c12 ?
intermediate

# bin label for O=c1c(-c2ccc(O)cc2)coc2cc(OCc3ccc(F)cc3)cc(O)c12
high

# bin label for O=c1c(O)c(-c2ccc(O)c(O)c2)oc2cc(O)cc(O)c12
high

Which bin should I file O=C1C[C@@H](c2ccc(O)cc2)Oc2cc(O)cc(O)c21 under?
high

Record O=C1C[C@@H](c2ccc(O)cc2)Oc2cc(OCc3ccc(F)cc3)cc(O)c21 — which class?
low

Just checking, what class would you give O=c1cc(-c2ccc(O)cc2)oc2cc(N3CCOCC3)cc(O)c12 here?
high

Lab note: sort O=c1cc(-c2ccccc2)oc2cc(OCc3ccc(F)cc3)cc(O)c12 into the matching CC50 at 72 h band.
low

Lab note: which band did O=c1cc(-c2ccc(O)c(O)c2)oc2cc(N3CCOCC3)cc(O)c12 land in?
high

Further cases:
Hello team, could you let me know which band the following molecule falls into: O=c1cc(-c2ccccc2)oc2cc(O)c(O)c(O)c12
intermediate

Hi there! Could you help me figure out the category for CC(C)(C)Oc1cc(O)c2c(c1)O[C@H](c1ccc(O)cc1)CC2=O please?
intermediate

Exam item: assign O=c1cc(-c2ccc(O)c(O)c2)oc2cc(OCc3ccc(F)cc3)cc(O)c12 to the correct category.
low

Exercise: read the entry CC(C)(C)Oc1cc(O)c2c(=O)cc(-c3ccc(O)cc3)oc2c1 and state which class it falls under.
intermediate

Exam item: assign CC(C)(C)Oc1cc(O)c2c(=O)c(-c3ccc(O)cc3)coc2c1 to the correct category.
intermediate

Hey, which category is O=c1cc(-c2ccccc2)oc2cc(OCc3ccc(F)cc3)c(O)c(O)c12 in, do you know?
low

Which bin should I file O=c1cc(-c2ccc(O)cc2)oc2cc(O)cc(O)c12 under?
low

Just checking, what class would you give CC(C)(C)Oc1cc(O)c2c(=O)cc(-c3ccccc3)oc2c1 here?
high

GET /class?item= O=c1c(-c2ccc(O)cc2)coc2cc(N3CCOCC3)cc(O)c12
high

Please report the category associated with O=c1c(O)c(-c2ccc(O)c(O)c2)oc2cc(N3CCOCC3)cc(O)c12 , nothing else.
intermediate

Category of O=c1cc(-c2ccccc2)oc2cc(N3CCOCC3)cc(O)c12 :
high

----------
target: Human immunodeficiency virus type 1 integrase (Human immunodeficiency virus 1, UniProt Q7ZJM1); assay: Inhibition of recombinant HIV-1 integrase 3'-processing activity using 32P 5' end-labeled linear 21'mer as substrate preincubated for 30 mins prior to substrate challenge by phosphorimaging analysis
Sequence (Q7ZJM1 whole entry): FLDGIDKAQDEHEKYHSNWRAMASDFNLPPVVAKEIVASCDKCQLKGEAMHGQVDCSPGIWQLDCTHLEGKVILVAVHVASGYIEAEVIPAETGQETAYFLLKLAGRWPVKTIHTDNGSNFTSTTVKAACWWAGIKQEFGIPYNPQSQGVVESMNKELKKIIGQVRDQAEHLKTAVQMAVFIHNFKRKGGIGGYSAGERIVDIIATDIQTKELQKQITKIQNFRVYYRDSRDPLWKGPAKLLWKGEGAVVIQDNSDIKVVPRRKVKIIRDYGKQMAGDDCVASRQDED
Catalogue of compounds with associated IC50

Retrieve IC50 measured for CC(C)(C)Oc1cc2oc(-c3ccccc3)cc(=O)c2c(O)c1O and print it.
> 100 µM

Others:
Quick one: give measured IC50 for O=c1cc(-c2ccc(O)c(O)c2)oc2cc(O)cc(O)c12
> 20 µM

Fill in IC50 for record O=c1cc(-c2ccc(O)cc2)oc2cc(OCc3ccc(F)cc3)cc(O)c12
80 µM

# return recorded IC50 for input O=c1c(-c2ccc(O)cc2)coc2cc(O)cc(O)c12
> 20 µM

Determine its reported IC50: O=c1cc(-c2ccc(O)cc2)oc2cc(O)cc(O)c12
> 20 µM

State its IC50 for this compound: O=c1c(O)c(-c2ccc(OCc3ccc(F)cc3)c(O)c2)oc2cc(O)cc(O)c12
> 20 µM

Supply IC50 value. Item: O=c1cc(-c2ccc(O)c(O)c2)oc2cc(OCc3ccc(F)cc3)cc(O)c12
> 20 µM

Specify measured IC50 for O=c1c(OCc2ccc(F)cc2)c(-c2ccc(O)c(O)c2)oc2cc(O)cc(O)c12 .
> 20 µM

Reference for the values: ChEMBL document CHEMBL3286361
